Target: IKKε (Homo sapiens (Human))
Test: IKKε TR-FRET enzymatic assay
Format: biochemical
Details: TR-FRET, 2×Km ATP; geometric mean of minimum four determinations; read-out: IKKe IC50
pIC50: −log10 of the molar value.
endpoint.name: pIC50

COCC(=O)N1CC[C@H](Oc2ccc(-c3ncnc(Nc4ccc(C5CCN(C)CC5)c(C)c4)n3)cc2C#N)[C@H](F)C1 [Example 489] | 9.00
N#Cc1cc(-c2ncnc(Nc3ccc(N4CCN(C5COC5)CC4)cc3)n2)ccc1O[C@H]1CCN(C(=O)[C@@H](O)CO)CC1(F)F [Example 581] | 9.00
Cc1ncc(Nc2ncnc(-c3ccc(O[C@H]4CCN(C(=O)[C@H](C)O)C[C@H]4F)c(C#N)c3)n2)s1 [Example 570] | 8.40

[P] CO[C@@H](C)C(=O)N1CC[C@H](Oc2ccc(-c3ncnc(Nc4ccc(N5CCN(C6COC6)CC5)cc4)n3)cc2C#N)[C@H](F)C1 [Example 547]
[Q] N#Cc1cc(-c2ncnc(Nc3ccc(C4CCN(C5COC5)CC4)cc3)n2)ccc1O[C@H]1CCN(C(=O)[C@@H](O)CO)C[C@H]1F [Example 509]
Task: Compare P and Q and name the one whose reported pIC50 is smaller. Select an item and report its label.
Output: P
(P: 7.44, Q: 9.00)

###

Molecular target: IKKε (Homo sapiens (Human), UniProt Q14164)
Sequence (Q14164 whole entry): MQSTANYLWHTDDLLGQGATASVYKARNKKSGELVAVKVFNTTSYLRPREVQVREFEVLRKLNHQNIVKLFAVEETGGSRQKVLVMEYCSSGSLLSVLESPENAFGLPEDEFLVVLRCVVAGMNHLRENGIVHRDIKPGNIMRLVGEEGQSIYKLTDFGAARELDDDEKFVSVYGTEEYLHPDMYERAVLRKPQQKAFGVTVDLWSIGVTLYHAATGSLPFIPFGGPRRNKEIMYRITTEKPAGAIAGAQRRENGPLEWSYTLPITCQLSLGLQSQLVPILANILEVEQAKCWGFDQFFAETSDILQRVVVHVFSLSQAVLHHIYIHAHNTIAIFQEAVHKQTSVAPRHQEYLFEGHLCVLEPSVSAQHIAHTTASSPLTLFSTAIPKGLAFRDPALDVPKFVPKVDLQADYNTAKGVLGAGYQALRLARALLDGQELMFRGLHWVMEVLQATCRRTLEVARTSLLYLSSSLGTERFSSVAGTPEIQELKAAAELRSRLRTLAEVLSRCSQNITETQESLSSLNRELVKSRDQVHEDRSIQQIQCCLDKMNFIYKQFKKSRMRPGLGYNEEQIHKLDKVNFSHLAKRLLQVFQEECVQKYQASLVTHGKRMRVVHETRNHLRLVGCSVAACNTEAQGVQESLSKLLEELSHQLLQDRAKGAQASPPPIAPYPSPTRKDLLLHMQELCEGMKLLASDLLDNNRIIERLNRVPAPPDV
Assay: IKKε TR-FRET enzymatic assay
Assay type: biochemical
Settings: read-out: IKKe IC50
endpoint.name: IC50 (nM)

The cases that follow already have their IC50 on record.
N#Cc1cc(-c2ncnc(Nc3ccc(N4CCN(C5COC5)CC4)cc3)n2)ccc1O[C@H]1CCN(C(=O)c2cncc(N)n2)C[C@H]1F [Example 340] | 9
COc1ccc(-c2ncnc(Nc3ccc(N4CCN(C5COC5)CC4)cc3)n2)cc1C#N [Example 104] | 215
N#Cc1cc(-c2ncnc(Nc3ccc(N4CCN(C5COC5)CC4)cc3)n2)ccc1O[C@H]1CCN(C(=O)c2cnc(N)cn2)C[C@H]1F [Example 341] | 1

[A] C[C@@H]1C[C@@H](Oc2ccc(-c3ncnc(Nc4ccc(N5CCN(C6COC6)CC5)cc4)n3)cc2C#N)CCN1C(=O)[C@@H](C)O [Example 184]
[B] N#Cc1cc(-c2ncnc(Nc3ccc(N4CCN(C5COC5)CC4)cc3)n2)ccc1OC1CCSCC1 [Example 19]
Task: For the pair A and B , which entry has the numerically smaller recorded IC50? I would appreciate it if you answered with the label of your choice.
Output: B

[1] N#Cc1cc(-c2ncnc(Nc3cccc(N4CCOCC4)c3)n2)ccc1OC1CCOCC1 [Example 63]
[2] N#Cc1cc(-c2ncnc(Nc3ccc(N4CCO[C@@H](CO)C4)cc3)n2)ccc1OC1CCN(C(=O)CO)CC1 [Example 227]
[3] C[C@@H](Oc1ccc(-c2ncnc(Nc3ccc(N4CCN(C5COC5)CC4)cc3)n2)cc1C#N)C1CCOCC1 [Example 283]
Task: Highest IC50 first, then in falling order down to the smallest. Quick reminder: the answer is the labels in the order asked.
Output: 3, 1, 2
(3: 115 nM, 1: 8 nM, 2: 4 nM)

[1] COc1cc(Nc2ncnc(-c3ccc(OC4CCOCC4)c(C#N)c3)n2)cc(F)c1N1CCN(C2COC2)CC1 [Example 61]
[2] N#Cc1cc(-c2ncnc(Nc3ccc(C4CCN(CC(F)F)CC4)cc3)n2)ccc1OC1CCOCC1 [Example 65]
[3] C[C@@H]1C[C@@H](O)CN1c1ccc(-c2ncnc(Nc3ccc(N4CCN(C5COC5)CC4)cc3)n2)cc1C#N [Example 204]
[4] N#Cc1cc(-c2ncnc(Nc3ccc(N4CCN(C5COC5)CC4)cc3)n2)ccc1OC1CCN(C(=O)c2ccc[nH]2)CC1(F)F (centres unmarked) [Example 162]
Task: Rank order required: IC50, descending. Form entry: ranked labels (order as requested).
Output: 3, 2, 1, 4
(3: 18 nM, 2: 11 nM, 1: 7 nM, 4: 4 nM)

[P] N#Cc1cc(-c2ncnc(Nc3ccc(N4CCN(C5COC5)CC4)cc3)n2)ccc1OC1CCN(C(=O)c2cc[nH]c2)CC1 [Example 191]
[Q] CCn1cc(Nc2ncnc(-c3ccc(O[C@H]4CCN(C(=O)[C@H](C)O)C[C@H]4F)c(C#N)c3)n2)cn1 [Example 351]
Task: Lower IC50: P or Q ? Return value: the label identifying the chosen record.
Output: Q
(Q: 9 nM, P: 226 nM)

###

Target: IKKε (Homo sapiens (Human))
Assay: IKKε TR-FRET enzymatic assay
Format: biochemical
Settings: read-out: IKKe IC50
pIC50: −log10 of the molar value.
endpoint.name: pIC50

[A] C[C@H](O)C(=O)N1CCC[C@H](Oc2ccc(-c3ncnc(Nc4ccc(N5CCN(C6COC6)CC5)cc4)n3)cc2C#N)C1
[B] CC1(C)CN(C(=O)CO)CC(F)C1Oc1ccc(-c2ncnc(Nc3ccc(N4CCN(C5COC5)CC4)cc3)n2)cc1C#N (stereo not drawn)
Task: Lab notebook, comparison: A versus B , higher pIC50 goes to which? Please reply using the label of the selected record.
Output: B

###

Molecular target: UniProt:Q14164
Assay: IKKε TR-FRET enzymatic assay
Type: biochemical
Conditions: read-out: IKKe IC50
endpoint.name: IC50 (nM)

CNC(=O)c1ccc(Nc2ncnc(-c3ccc(OC4CCOCC4)c(C#N)c3)n2)cc1 | 21

[P] Cc1cc(C(=O)N2CC[C@H](Oc3ccc(-c4ncnc(Nc5ccc(N6CCN(C7COC7)CC6)cc5)n4)cc3C#N)[C@H](F)C2)[nH]n1
[Q] Cn1cncc1C(=O)N1CC[C@H](Oc2ccc(-c3ncnc(Nc4ccc(N5CCN(C6COC6)CC5)cc4)n3)cc2C#N)[C@H](F)C1
[R] N#Cc1cc(-c2ncnc(Nc3ccc(N4CCN(C5COC5)CC4)cc3)n2)ccc1N1CC2(CCOCC2)C1
Task: Arrange the 3 compounds from largest to smallest IC50. Please respond with the labels ordered as the question requires.
Output: Q, R, P
(Q: 264 nM, R: 22 nM, P: 2 nM)

###

Entries with reported IC50 on hJAK2 (Homo sapiens (Human), UniProt O60674)
Sequence (O60674 whole entry): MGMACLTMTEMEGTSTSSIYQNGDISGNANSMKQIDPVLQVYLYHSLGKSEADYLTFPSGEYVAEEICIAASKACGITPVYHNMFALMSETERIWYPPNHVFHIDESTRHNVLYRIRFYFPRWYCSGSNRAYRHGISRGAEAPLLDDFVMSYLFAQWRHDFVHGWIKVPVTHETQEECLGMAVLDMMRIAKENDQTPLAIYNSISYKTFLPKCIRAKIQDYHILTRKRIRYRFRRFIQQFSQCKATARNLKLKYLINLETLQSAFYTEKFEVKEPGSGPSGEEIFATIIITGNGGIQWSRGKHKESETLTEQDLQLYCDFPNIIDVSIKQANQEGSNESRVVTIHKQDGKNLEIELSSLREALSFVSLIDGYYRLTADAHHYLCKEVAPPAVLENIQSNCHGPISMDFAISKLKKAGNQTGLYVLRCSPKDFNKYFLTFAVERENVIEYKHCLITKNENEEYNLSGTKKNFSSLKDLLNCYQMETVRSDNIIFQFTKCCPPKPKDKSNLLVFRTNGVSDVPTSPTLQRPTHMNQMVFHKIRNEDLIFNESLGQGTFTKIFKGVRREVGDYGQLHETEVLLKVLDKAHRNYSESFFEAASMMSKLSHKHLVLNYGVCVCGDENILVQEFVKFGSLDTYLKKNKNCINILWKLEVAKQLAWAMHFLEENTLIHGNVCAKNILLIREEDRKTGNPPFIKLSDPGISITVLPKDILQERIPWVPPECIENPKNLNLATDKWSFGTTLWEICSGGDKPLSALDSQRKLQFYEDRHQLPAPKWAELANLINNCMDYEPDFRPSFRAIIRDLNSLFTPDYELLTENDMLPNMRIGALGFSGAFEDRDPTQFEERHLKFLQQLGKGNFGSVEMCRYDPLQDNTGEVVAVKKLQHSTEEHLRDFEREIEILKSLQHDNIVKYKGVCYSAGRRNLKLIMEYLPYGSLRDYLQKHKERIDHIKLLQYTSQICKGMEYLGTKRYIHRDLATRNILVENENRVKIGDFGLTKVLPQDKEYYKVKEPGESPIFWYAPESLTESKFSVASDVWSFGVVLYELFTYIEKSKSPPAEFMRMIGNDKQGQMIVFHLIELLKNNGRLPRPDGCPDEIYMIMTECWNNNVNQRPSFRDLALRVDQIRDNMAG
endpoint.name: IC50 (µM)

N#Cc1cc(-c2ncnc(Nc3ccc(N4CCN(C5COC5)CC4)cc3)n2)ccc1O[C@H]1CCN(C(=O)[C@@H]2CCC(=O)N2)CC1(F)F [Example 116] | 0.146

[a] C[C@H](O)C(=O)N1CC[C@H](Oc2ccc(-c3ncnc(Nc4cnn(C(C)(C)C)c4)n3)cc2C#N)[C@H](F)C1 [Example 294]
[b] COc1cc(Nc2ncnc(-c3ccc(O[C@H]4CCN(C(=O)[C@H](C)O)C[C@H]4F)c(C#N)c3)n2)ccc1N1CCN(C2COC2)CC1 [Example 389]
[c] C[C@@H](O)C(=O)N1CC[C@H](Oc2ccc(-c3ncnc(Nc4ccc(N5CCN(C6COC6)CC5)cc4)n3)cc2C#N)[C@H](F)C1 [Example 464]
[d] N#Cc1cc(-c2ncnc(Nc3ccc(N4CCN(C5COC5)CC4)cc3)n2)ccc1O[C@H]1CCN(C(=O)C2(O)COC2)C[C@H]1F [Example 472]
[e] NC(=O)c1cc(-c2ncnc(Nc3ccc(N4CCN(C5COC5)CC4)cc3)n2)ccc1OC1CNC(=O)C(F)(F)C1 (centres unmarked) [Example 447]
Task: Given 5 compounds, produce a descending ranking by IC50. Answer with the labels in sequence, matching the requested order.
Output: d, c, a, b, e

[a] N#Cc1cc(-c2ncnc(Nc3ccc(N4CCN(C5COC5)CC4)cc3)n2)ccc1OC1COC1 [Example 5]
[b] C[C@H](O)C(=O)N1CCCC(Oc2ccc(-c3ncnc(Nc4ccc(N5CCN(C6COC6)CC5)cc4)n3)cc2C#N)CC1 (some centres unmarked) [Example 359]
[c] N#Cc1cc(-c2ncnc(Nc3ccc(N4CCN(C5COC5)CC4)cc3)n2)ccc1O[C@H]1CCN(C(=O)c2ncc[nH]2)C[C@H]1F [Example 142]
Task: Could you please sort these 3 entries by IC50 from high to low? The response must list the labels following the requested ordering.
Output: b, a, c

###

Molecular target: UniProt:Q14164
Experiment: IKKε TR-FRET enzymatic assay
Type: biochemical
Settings: read-out: IKKe IC50
endpoint.name: IC50 (nM)

CN1CCN(c2ccc(Nc3ncnc(-c4ccc(O[C@@H]5CCN(C(=O)CO)C5)c(C#N)c4)n3)cc2)CC1 | 4

[1] N#Cc1cc(-c2ncnc(Nc3ccc(N4CCN(C5COC5)CC4)cc3)n2)ccc1O[C@H]1CCN(C(=O)c2cn[nH]c2Cl)C[C@H]1F
[2] N#Cc1cc(-c2ncnc(Nc3ccc(N4CCN(C5COC5)CC4)cc3)n2)ccc1O[C@H]1CCN(C(=O)c2ccc[nH]2)C[C@H]1F
Task: Between the entries labelled 1 and 2 , which has a larger IC50 value on record? Which one? Tell me its label.
Output: 1

[P] C[C@H](O)C(=O)N1CC[C@H](Oc2ccc(-c3ncnc(Nc4ccc(N5CC6COCC6C5)cc4)n3)cc2C#N)[C@H](F)C1 (stereo partly shown)
[Q] N#Cc1cc(-c2ncnc(Nc3ccc(N4CCOCC4)cc3)n2)ccc1O[C@@H]1CCNC1
Task: From the items above, decide which of P and Q has the lower IC50 reading. Please identify the chosen entry by its label.
Output: P
(P: 1 nM, Q: 37 nM)

[I] N#Cc1cc(-c2ncnc(Nc3ccc(N4CCN(C5COC5)CC4)cc3)n2)ccc1O[C@H]1CCN(C(=O)c2ccn[nH]2)CC1(F)F
[II] N#Cc1cc(-c2ncnc(Nc3ccc(C(=O)C(F)(F)F)cc3)n2)ccc1OC1CCOCC1
Task: Please compare: I and II . Report which one has the smaller IC50 value. Mark your answer with the label of the selected entry.
Output: I
